- measurement.parameters: in acetone, 293.15 K
endpoint: solubility (mole fraction)
One number for each entry.

# solubility (mole fraction) of COc1cc(/C=C/C(=O)CC(=O)/C=C/c2ccc(O)c(OC)c2)ccc1O = 0.0138

###

- measurement.parameters: in ethanol, 278.15 K
endpoint: solubility (mole fraction)
Numbers only.

# solubility (mole fraction) of COc1cc(/C=C/C(=O)CC(=O)/C=C/c2ccc(O)c(OC)c2)ccc1O = 0.00041

###

- measurement.parameters: in ethyl acetate, 318.15 K
endpoint: solubility (mole fraction)
Answers are plain numbers.

# solubility (mole fraction) of COc1cc(/C=C/C(=O)CC(=O)/C=C/c2ccc(O)c(OC)c2)ccc1O = 0.00447
